- measured target: T1, human IL-13 wild type (human, UniProt P35225 35-146)
- T1 construct: also called h IL-13; h IL-13 wt
- T1 sequence (P35225 other isoform, or with tags, fused parts or gaps limits assumed): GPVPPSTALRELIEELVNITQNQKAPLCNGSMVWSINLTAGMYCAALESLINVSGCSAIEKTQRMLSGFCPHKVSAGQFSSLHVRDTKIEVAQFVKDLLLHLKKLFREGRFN
- test protocol: SPR (Biacore), mAb captured, IL-13 as analyte
value type: koff (s⁻¹)
Could you give me the number in s⁻¹? Just the number is fine.

Provide measured koff value, entry: 29G5 (antibody, V domains shown) VH: QVTLKESGPGILQPSQTLSLTCSFSGFSLSTSDMGVDWIRQPSGKDLEWLAHIWWDDVKRYNPALKSRLTISKDTSSSQVFLMLASVDTADTATYYCARIVSSGYIYYALDYWGQGTSVTVSS VL: DIQMTQTASSLSASLGDRVTISCRASQDIRNYLNWYQRKPDGTVKLLIYYTSRLHSGVPSRFSGSGSGTDYSLTISNLEQEDIATYFCQQGNTLPLTFGGGTKLEIKR
0.000175

Continuing:
Provide measured koff value, entry: 1B6 (antibody, V domains shown) VH: QVQLKESGPGLVAPSQSLSITCTVSGFSLTGYGVNWVRQPPGKGLEWLGMIWGDERIDYNSALKSRLSITKDNSKSQVFLKMNSLQTDDTGRYFCARDGYFPYAMDYWGQGTSVTVSS VL: NIVLTQSPASLAVSLGQRATISCRASETVDSYGKSYLHWYQQKPGQPPKLLIYLASNLESGVPARFSGSGSRTDFTLIIDPVEADDAATYYCQQNNEGPRTFGGGTKLEIKR
0.000518

Provide measured koff value, entry: 3E5 (antibody, V domains shown) VH: QVQLKESGPGLVAPSQSLSITCTVSGFSLTGSSINWVRQPPGKGLEWLGMIWGDGRIDYNSVLKSRLSISKDSSKSQVFLKMNSLQADDTARYYCARDGYYPYAMVYWGQGTSVTVSS VL: NIVLTQSPASLAVSLGQRATIFCRASESVDSYGNSFMHWYQQKSGQPPKLLIYLASNLESGVPARFSGSGSRTDFTLTIDPVEADDAATFYCQQNNENPRTFGGGTKLEIKR
0.000658

Provide measured koff value, entry: 25C8 (antibody, V domains shown) VH: QVQLQQPGAELVRPGASVQLSCKASGYTFTSSWIHWVNQRPGQGLEWIGMIHPSDSETRLNQKFKDKATLTVDKSSSTAYMQLSSPTSEDSAVYYCASTATDFDYWGQGTTLTVSS VL: DVVLTQTPLSLPVNIGDQASISCKSTKSLLNSDGFTYLDWYLQKPGQSPQLLIYLVSNRFSGAPDRFSGSGSGTDFTLKISRVEAEDLGVYYCFQHNYLPLTFGAGTNLELKR
2.6e-05
